B1: TPR 5TU (parent)
chain: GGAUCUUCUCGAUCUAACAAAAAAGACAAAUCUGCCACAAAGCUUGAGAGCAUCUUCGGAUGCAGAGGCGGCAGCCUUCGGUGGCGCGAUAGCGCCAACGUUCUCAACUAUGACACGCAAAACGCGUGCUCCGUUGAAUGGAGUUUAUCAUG

- Variants of: B1
- test name: polymerase ribozyme fitness, log enrichment relative to wild type (log ratio); higher = more active; in vitro selection for triplet polymerase activity
Variants at the floor of the assay were thinned out.

{"columns": ["mutant name", "polymerase ribozyme fitness (log ratio)"],
 "data": [
  ["C79A U90G C95G C116A A119C G141U", "≤ -4.2"],
  ["A24U A26U G48C G83A A115U C116U", "≤ -4.2"],
  ["C85G C99G C116G G136U", "≤ -4.2"],
  ["A3U C38A C87U C95U G128C", "≤ -4.2"],
  ["U6A C79A G86U A89C C103G", "≤ -4.2"],
  ["A60C G88C", "≤ -4.2"],
  ["U55A A60G C76G C87G C96U U139A G140C", "≤ -4.2"],
  ["G50A C69U G84U A98U A122G", "≤ -4.2"],
  ["G25U G42A A49C G80A C85G C95U C103A", "≤ -4.2"]
]}
